Recorded values, source patent US9102648B1.

# SYSTEM TESTED: Bombyx mori EcR (VP16 fusion, CVBE switch construct) (Bombyx mori)
# Sequence (P49881 86-606): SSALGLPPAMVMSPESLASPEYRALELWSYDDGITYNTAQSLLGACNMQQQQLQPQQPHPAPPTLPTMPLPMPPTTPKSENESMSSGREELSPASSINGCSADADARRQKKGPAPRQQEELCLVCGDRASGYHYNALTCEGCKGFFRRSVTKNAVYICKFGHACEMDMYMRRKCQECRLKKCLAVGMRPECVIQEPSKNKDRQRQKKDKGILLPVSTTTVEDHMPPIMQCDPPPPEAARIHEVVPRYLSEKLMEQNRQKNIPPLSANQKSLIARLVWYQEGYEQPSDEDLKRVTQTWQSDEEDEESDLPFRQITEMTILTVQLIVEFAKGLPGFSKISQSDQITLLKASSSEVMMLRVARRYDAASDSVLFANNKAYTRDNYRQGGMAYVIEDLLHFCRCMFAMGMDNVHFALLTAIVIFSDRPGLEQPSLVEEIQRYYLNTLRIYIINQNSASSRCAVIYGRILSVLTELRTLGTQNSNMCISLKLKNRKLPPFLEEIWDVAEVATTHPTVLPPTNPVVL
# Sequence (P19793 whole entry partner, the tested form may be a part): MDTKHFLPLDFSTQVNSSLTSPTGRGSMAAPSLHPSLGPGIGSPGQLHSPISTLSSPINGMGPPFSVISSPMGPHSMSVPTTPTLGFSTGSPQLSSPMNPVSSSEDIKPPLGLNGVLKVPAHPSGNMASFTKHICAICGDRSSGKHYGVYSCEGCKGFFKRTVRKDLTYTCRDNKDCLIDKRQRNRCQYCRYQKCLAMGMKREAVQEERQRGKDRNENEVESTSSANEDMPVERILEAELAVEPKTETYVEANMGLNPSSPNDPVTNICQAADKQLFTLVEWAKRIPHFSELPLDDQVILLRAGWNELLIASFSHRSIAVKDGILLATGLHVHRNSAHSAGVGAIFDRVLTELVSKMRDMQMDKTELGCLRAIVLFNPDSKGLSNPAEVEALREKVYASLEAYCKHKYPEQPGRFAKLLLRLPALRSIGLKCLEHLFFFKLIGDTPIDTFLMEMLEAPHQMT
# ASSAY INFO: Z3 Assay (HEK-293 cells with CVBE and 6XEcRE LacZ, β-galactosidase reporter)
# PARTICULARS: 3.3 uM ligand; ligand treated / DMSO treated cells; average of two wells
Labels assigned by Fold Induction, Z3 Assay, 3.3 uM range: bin A: < 500; bin B: ≥ 500 and < 700; bin C: ≥ 700

MOLECULE: CCc1c(C(=O)NN(C(=O)c2ccc(C)cc2)C(C)(C)C)ccc2c1OCOC2 [RG-115611]
CATEGORY LABEL: bin C

MOLECULE: Cc1c(C(=O)NN(C(=O)c2ccc(F)cc2)C(C)(C)C)ccc2c1OCCO2 [RG-100425]
CATEGORY LABEL: bin C

MOLECULE: CCc1c(OC)cccc1C(=O)NN(C(=O)c1c(F)cccc1F)C(C)(C)C [RG-115033]
CATEGORY LABEL: bin A

MOLECULE: CCc1cccc(C(=O)NN(C(=O)c2cc(C)cc(C)c2)C(C)(C)C)c1C [RG-101691]
CATEGORY LABEL: bin B

MOLECULE: CCc1ccc(C(=O)NN(C(=O)c2cc(C)ccc2[N+](=O)[O-])C(C)(C)C)cc1 [RG-101398]
CATEGORY LABEL: bin C

MOLECULE: CCc1c(OC)cccc1C(=O)NN(C(=O)c1cc(C)cc(C)c1)C(C)(C)C#N [RG-115043]
CATEGORY LABEL: bin A

MOLECULE: COc1cc(C(=O)N(NC(=O)c2cccc(OC)c2C)C(C)(C)C)ccc1C [RG-100768]
CATEGORY LABEL: bin C

MOLECULE: Cc1c(C(=O)NN(C(=O)c2ccccc2[S+](C)[O-])C(C)(C)C)ccc2c1OCCO2 (centres unmarked) [RG-115064]
CATEGORY LABEL: bin A

MOLECULE: CCc1ccc(C(=O)NN(C(=O)c2cccc([N+](=O)[O-])c2)C(C)(C)C)c(F)c1 [RG-115167]
CATEGORY LABEL: bin A

MOLECULE: CCc1c(OC)cccc1C(=O)NN(C(=O)c1ccccc1[N+](=O)[O-])C(C)(C)C [RG-115330]
CATEGORY LABEL: bin B

###

# ASSAY INFO: Bi-directional permeability, CACO-2
# Type: in vitro ADME
# PARTICULARS: Caco-2, pH 7, cell-free (blank) membrane, 10 μM; read-out: Papp Blank
# Procedure: Caco-2 monolayers were grown to confluence on collagen-coated, microporous, polycarbonate membranes in 12-well Costar Transwell plates. Details of the plates and their certification are shown below. […] Lucifer yellow flux was also measured for each monolayer after being subjected to the test compounds to ensure no damage was inflicted to the cell monolayers during the flux period. […]
Recorded Papp at 2 h, 10 µM by entry
MEASURE: Papp at 2 h, 10 µM (×10⁻⁶ cm/s)

COMPOUND SMILES: CCc1ccc(C(=O)NN(C(=O)c2cc(C)cc(C)c2)C(C)(C)C)cc1
DISPLAY UNIT: ×10⁻⁶ cm/s
MEASURED RESULT: 21.9
--
COMPOUND SMILES: CCc1c(OC)cccc1C(=O)NN(C(=O)c1cc(C)cc(C)c1)C(C)(C)C
DISPLAY UNIT: ×10⁻⁶ cm/s
MEASURED RESULT: 28.4
--
COMPOUND SMILES: COc1cccc(C(=O)NN(C(=O)c2cc(C)cc(C)c2)C(C)(C)C)c1C
DISPLAY UNIT: ×10⁻⁶ cm/s
MEASURED RESULT: 34.7
